assaySummary: Hemolytic activity in human RBC at 50 ug/ml
Assay type: toxicity, cell-based, Erythrocyte
recordedConditions: red blood cells (erythrocytes), at 50 µg/mL, read-out: Activity
observedProperty: hemolysis at 50 ug/ml (%)
Unit % implied. Number only.

Qu. Form field: reported hemolysis at 50 ug/ml of C[C@H](CCC(=O)NCc1cn(CCCCCn2cc(CNC(=O)CC[C@@H](C)[C@H]3CC[C@H]4[C@@H]5[C@H](OC(=O)CN)C[C@@H]6C[C@H](OC(=O)CN)CC[C@]6(C)[C@H]5C[C@H](OC(=O)CN)[C@]34C)nn2)nn1)[C@H]1CC[C@H]2[C@@H]3[C@H](OC(=O)CN)C[C@@H]4C[C@H](OC(=O)CN)CC[C@]4(C)[C@H]3C[C@H](OC(=O)CN)[C@]12C.Cl.Cl.Cl.Cl.Cl.Cl
Ans. 10

Qu. Now consider C[C@H](CCC(=O)NCc1cn(CCCCCCn2cc(CNC(=O)CC[C@@H](C)[C@H]3CC[C@H]4[C@@H]5[C@H](OC(=O)CN)C[C@@H]6C[C@H](OC(=O)CN)CC[C@]6(C)[C@H]5C[C@H](OC(=O)CN)[C@]34C)nn2)nn1)[C@H]1CC[C@H]2[C@@H]3[C@H](OC(=O)CN)C[C@@H]4C[C@H](OC(=O)CN)CC[C@]4(C)[C@H]3C[C@H](OC(=O)CN)[C@]12C.Cl.Cl.Cl.Cl.Cl.Cl .
Ans. 58

Qu. Now consider C[C@H](CCC(=O)NCc1cn(CCCn2cc(CNC(=O)CC[C@@H](C)[C@H]3CC[C@H]4[C@@H]5[C@H](OC(=O)CN)C[C@@H]6C[C@H](OC(=O)CN)CC[C@]6(C)[C@H]5C[C@H](OC(=O)CN)[C@]34C)nn2)nn1)[C@H]1CC[C@H]2[C@@H]3[C@H](OC(=O)CN)C[C@@H]4C[C@H](OC(=O)CN)CC[C@]4(C)[C@H]3C[C@H](OC(=O)CN)[C@]12C.Cl.Cl.Cl.Cl.Cl.Cl .
Ans. 9

Qu. Now consider CC(C)C(N)C(=O)NCC(=O)O[C@@H]1CC[C@@]2(C)[C@@H](C1)C[C@@H](OC(=O)CNC(=O)C(N)C(C)C)[C@@H]1[C@@H]2C[C@H](OC(=O)CNC(=O)C(N)C(C)C)[C@]2(C)[C@@H]([C@H](C)CCC(=O)OCc3ccccc3)CC[C@@H]12 (some centres undefined) .
Ans. 95

Source: ChEMBL document CHEMBL5096228
